experiment: Synovial fluid pharmacokinetics after intra-articular injection of unformulated PA; type: in vivo; conditions: rat, 15 ng in 5 μl intra-articular, read-out: Half-life (t1/2) (converted)
Parameter: half-life (min)
Report only the number, with the unit min understood.

Q: Give half-life for `Cc1ccc(C(=O)NC2CC2)cc1NC(=O)c1ccc(OCc2ccccn2)c(F)c1`
Ans: 12

====

assay: Systemic pharmacokinetic parameters in the rat; type: in vivo; conditions: in vivo, read-out: systemic Cl
Parameter: clearance (mL/min/kg)
Report only the number, with the unit mL/min/kg understood.

Q: Give clearance for Cc1ccc(C(=O)NC2CC2)cc1NC(=O)c1ccc(OCc2ccccn2)c(F)c1 [PA]
Ans: 14

Measured values drawn from patent US20170135996A1 for this set.
